# target-or-test-system: T1, O13-AA
# T1 chain: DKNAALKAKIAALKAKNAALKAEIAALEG
# procedure-summary: two-hybrid library CCmax;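 also: natural log of median RNA to DNA barcode read ratio; higher means stronger binding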
# test-parameters: mean of both orientations
experimental-endpoint: interaction score

# binder, result-number
records = [
    ("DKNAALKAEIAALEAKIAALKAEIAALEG [4H3625-AA]", -1.47),
]

[I] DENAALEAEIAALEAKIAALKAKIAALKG [4H1070-AA]
[II] DKNAALKAKIAALKAEIAALEAEIAALEG [4H3905-AA]
Between item I and item II , which reported interaction score is smaller? State the label of the item chosen.
I
(I: -0.784, II: 0.128)

Data origin: paper PMC10397247
